Target: PKCα (Homo sapiens, UniProt P17252)
Experiment: PKCα kinase Caliper assay
Format: biochemical
pIC50: −log10 of the molar value.
Measured Property: pIC50

I would be grateful if you could share the reported pIC50 for `Nc1cc(F)c(-c2c(F)cccc2F)nc1C(=O)Nc1cnccc1[C@H]1C[C@@H](N)[C@@]2(O)CCCC[C@H]2O1` . < 5.00

---

So I've got a bunch of molecules here, and I need their IC50 values.
Molecular target: cABLT315 kinase (Homo sapiens, UniProt P00519)
Experiment: cABLT315 kinase Caliper assay
Format: biochemical
Dear colleague, please return just the value in nM, with no unit written.

State the recorded IC50 for this entry: C[C@H]1O[C@@H](c2ccncc2NC(=O)c2nc(-c3ccccc3)ncc2N)C[C@@H](O)[C@]1(C)O [Example 32] 9000

What does the data say about its IC50? Entry: Nc1ncc(-c2ccccc2)nc1C(=O)Nc1cnccc1[C@H]1C[C@@H](O)[C@@]2(O)CCCC[C@H]2O1 [Example 173] 70

IC50 lookup needed for C[C@@H]1O[C@H](c2ccncc2NC(=O)c2nc(-c3ccccc3)cnc2N)[C@@H](F)[C@H](O)[C@@]1(C)O [Example 63] , thanks. 650
